In this section we review reported GI50 values for a set of molecules.
Test system: MDA-N
Experiment: NCI tumour cell line growth inhibition, 48 h
Calls of active or inactive are those of the source. No stated cut-off is given here; in the data, active = GI50 up to about 1.1 µM and inactive = higher. Residues, ends and D or L forms follow the SMILES beside them. *: point of attachment. Boc = CC(C)(C)OC(=O)*; OBn = c1ccc(CO*)cc1

Some molecules with recorded GI50:
CCOC(=O)CCC(NC(=O)c1ccc(OCc2nc3ccccc3n3cccc23)cc1)C(=O)OCC (stereo not given)    > 100 µM (inactive)
CC(NC(=O)CNC(=O)OC(C)(C)C)C(=O)NC(Cc1ccccc1)C(=O)OCc1ccccc1 (stereo not drawn) (Boc-Gly-Ala-Phe-OBn; configuration not given here)    > 100 µM (inactive)
Oc1cccc2c1[nH]c1c(C3=C[C@@]4(O)CC/C=C\CCCCN5CC[C@@H]3[C@]3(CC6/C=C\CCCCN6[C@H]34)C5)nccc12 (stereo not given in full)    0.771 µM (active)
CCN(CC)CCN1c2ccccc2Sc2ccc3ccccc3c21    12.3 µM (inactive)
CC(C)N(C)C(=O)C12C3C4C1C1C2C3C41C#N (stereo not given)    > 100 µM (inactive)
O=C(O)CC(Sc1ccccc1)c1ccccc1 (stereo not given)    > 100 µM (inactive)
N#CC(CCN1CCC(Nc2ccccc2)(c2nnnn2C2CCCCC2)CC1)(c1ccccc1)c1ccccc1    > 100 µM (inactive)
COC(=O)CC(C)(N[S+]([O-])c1ccc(C)cc1)c1ccccc1 (stereo not given)    > 100 µM (inactive)
COc1ccccc1OC(=O)/C=C/c1ccccc1    > 100 µM (inactive)
C/C=C/[C@@]1(OC(=O)c2ccccc2)C[C@@H]2CCCC[C@@H]21    17.4 µM (inactive)

Let us examine a further case.
GI50 recorded for this molecule, C[C@H]1/C(=C/C(=O)OCCN(C)C)CC[C@H]2[C@H]1C(=O)C[C@H]1C(C)(C)[C@@H](O)CC[C@]21C , is > 100 µM (inactive)

###

Tested on: SW-620
Assay: NCI tumour cell line growth inhibition, 48 h
Activity calls are given as the source filed them. Cut-off read from the data, not from the text of the source: active = GI50 up to about 1.1 µM and inactive = higher.
Hi there, use one of these labels in your reply, thanks! 1 (active), 0 (inactive)

Hi, do you know how CC(C)N(C(=O)C12C3(C(=O)C(C)(C)C)C4C5(C#N)C3C1(C(=O)C(C)(C)C)C5C42C(=O)C(C)(C)C)C(C)C (centres undefined) came out in this test?
0

###

Test system: DMS-114
Test: NCI tumour cell line growth inhibition, 48 h
Active and inactive are the calls of the source. No stated cut-off is given here; in the data, active = GI50 up to about 1.1 µM and inactive = higher.
In this section we review reported GI50 values for a set of molecules.

GI50 recorded for this molecule, O=C(O)c1nccnc1C(=O)O , is > 100 µM (inactive)

###

In this section we review reported GI50 values for a set of compounds.
Tested on: M14
Assay: NCI tumour cell line growth inhibition, 48 h
Activity calls are given as the source filed them. Rule as the data show it: active = GI50 up to about 1.1 µM and inactive = higher.

GI50 recorded for this compound, Cc1c2n(c3ccccc13)CC1C2N(C)OC1(C)C (centres undefined) , is > 100 µM (inactive)

GI50 recorded for this compound, COc1cc([C@@H]2OC(=O)C3C2C(=O)O[C@H]3c2ccc(O)c(OC)c2)ccc1O (some centres undefined) , is > 100 µM (inactive)

GI50 recorded for this compound, CCCCNC1=C(C(=O)OCC)C(=O)CO1 , is > 100 µM (inactive)

GI50 recorded for this compound, COP(=O)(OC)C(O)/C=C(\Cl)c1ccc(Cl)cc1 (centres undefined) , is 62.1 µM (inactive)
